Assay: reduction of polyQ htt aggregates in cells – imaging, exon1htt(103Q)mCFP cells, high-content imaging, primary screen (AID 483);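 further: compound exposure lasted 3 days before fixation; percent of the per-plate median nuclei count of sample wells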
Conditions: exon1htt(103Q)mCFP cell line, aggregate imaging, at 2 µM; measured here: cell count, toxicity
Readout Kind: nuclei count (%)
Just the number in %, nothing appended.

Study these solved cases before continuing.
[[record]]
compound = "COc1cc2c(cc1OC)C(c1ccccc1O)N(C1CC(=O)N(c3ccccc3)C1=O)CC2 (configuration not stated)"
reported_value = 105

[[record]]
compound = "O=C(O)CSC1CC(=O)N(c2ccc(Cl)c(Cl)c2)C1=O (configuration not stated)"
reported_value = 88.4

[[record]]
compound = "CCOC(=O)c1ccccc1NC(=O)COC(=O)C1=COCCO1"
reported_value = 61.5

[[record]]
compound = "Cn1c(CN2CCCCC2)nc2cc(NC(=O)c3ccccc3)ccc21"
reported_value = 85.3

[[record]]
compound = "O=C1NC(c2ccco2)Nc2ccccc21 (configuration not stated)"
reported_value = 102


Which nuclei count value belongs to Nc1nc(N2CCN(C/C=C/c3ccccc3)CC2)nc2ccccc12 ?
69.5

Which nuclei count value belongs to Cc1nc2ccc(F)cc2cc1C(=O)NCC1CCCO1 (configuration not stated) ?
96.4

Which nuclei count value belongs to COc1ccc(OC)c(-n2nnnc2SCC(=O)NCc2ccc3c(c2)OCO3)c1 ?
101

Which nuclei count value belongs to CC1CC(C)CN(CC(=O)Nc2ccc(S(N)(=O)=O)cc2)C1 (configuration not stated) ?
113

Which nuclei count value belongs to Fc1ccc(-c2nnc3ccc(N4CCCC4)nn23)cc1 ?
97.7

Which nuclei count value belongs to CN(C(=O)C1CCOC1)c1nnc(-c2cccnc2)s1 (configuration not stated) ?
67.6

Which nuclei count value belongs to COc1ccc(S(=O)(=O)Nc2cccc(C)n2)c2ccccc12 ?
76.3

----------
Test: inhibitors of TNFa-induced NFkB p65 translocation, primary screen, imaging, HUVEC, MLSMR starter and 10KST1 sets (AID 438);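 further: compound added about 3h40 before a 20 min TNFalpha stimulation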
Settings: HUVEC TNFa-induced p65 nuclear translocation; measured here: nuclei count (cytotoxicity indicator), at 2.08 µM
Assign 1 whenever cell count does not fall below 400; assign 0 whenever it does.

Sample answers from the record:
[[record]]
smiles_structure = "O=C(Nc1cccnc1)c1cc2c(ccc3ccccc32)o1"
label = 1

[[record]]
smiles_structure = "O=C(Nc1ccccc1)c1cccc(N2CCCC2=O)c1"
label = 0

[[record]]
smiles_structure = "Nc1nnc(-c2cc3ccccc3oc2=O)s1"
label = 1


Threshold query (cell count >= 400) on CC(=O)NCc1cccc(CNC(C)=O)n1
1

Threshold query (cell count >= 400) on COC(=O)C1=C(C)N(Cc2ccco2)C(=O)C1
0

Threshold query (cell count >= 400) on COc1ccc(-c2noc(CCC(=O)Nc3nc4ccccc4s3)n2)cc1
1

Threshold query (cell count >= 400) on O=C(c1cnc2sccn2c1=O)N1CCc2ccccc2C1
1

----------
Assay: TLR3 IRF3 reporter activation blockers – cell-based, poly I:C stimulus, luciferase, 10K MLSCN set, primary screen (AID 602277)
Conditions: HEK293-TLR3 RL24 IRF3 luciferase reporter, at 10 µM
Activity calls are given as the source filed them.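 The calls were made as follows: active = inhibition of the reporter signal at or above 50%; inactive = inhibition below 50%.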
# valid calls are active, inactive; nothing else

[[record]]
molecule = "Cc1ccc(-c2[nH]nc3c2C(c2ccc(OC(=O)N4CCOCC4)cc2)C(C#N)=C(N)O3)cc1 (stereo not given)"
label = "inactive"

[[record]]
molecule = "COC(=O)Cn1c2ccccc2c2nc(C)sc21"
label = "inactive"

[[record]]
molecule = "COc1cc(CN2CCSCC2)cc(OC)c1OC"
label = "inactive"

[[record]]
molecule = "CC1=C(C(=O)OC(C)C)C(c2cccc(F)c2)n2ncnc2N1 (stereo not given)"
label = "inactive"

[[record]]
molecule = "Cc1nc(/N=C\\N(C)C)sc1C(=O)Nc1ccccc1"
label = "inactive"

[[record]]
molecule = "CCOC(=O)N1CCC(NC(=O)C2CCC(Cn3c(=O)[nH]c4ccccc4c3=O)CC2)CC1 (stereo not given)"
label = "inactive"

[[record]]
molecule = "Cc1ccc(Cn2nnc3c(=O)[nH]c(C4CCN(S(=O)(=O)c5ccc(F)cc5)CC4)nc32)cc1"
label = "inactive"

[[record]]
molecule = "COc1ccc(C)cc1S(=O)(=O)N(C)CC(=O)Nc1ccc2c(c1)OCO2"
label = "inactive"

[[record]]
molecule = "O=C(NC1CCCCCC1)C1CCCN(S(=O)(=O)c2cccs2)C1 (stereo not given)"
label = "inactive"

[[record]]
molecule = "CCNS(=O)(=O)c1ccc(S(=O)(=O)N(Cc2ccccn2)C2CCCCC2)cc1"
label = "inactive"


What outcome does the record of this test show for CCOc1ccc(C(=O)Nc2cc(C)on2)cc1OCC ?
inactive

What outcome does the record of this test show for O=S(=O)(c1ccc2c(c1)OCCO2)N1CCC(n2nnc3cc(F)ccc32)CC1 ?
inactive

What outcome does the record of this test show for Cc1ccc(-n2c3c(cc(C(=O)O)c2=O)C(=O)CC(C)(C)C3)cc1 ?
inactive

What outcome does the record of this test show for Cc1cccc(-n2ncc3c(N)ncnc32)c1 ?
inactive

What outcome does the record of this test show for O=C(CNCCC1=CCCCC1)Nc1ccccc1N1CCCCC1 ?
inactive

What outcome does the record of this test show for Cc1cc(C)n(-c2ccc(N3CCOCC3)nn2)n1 ?
inactive

What outcome does the record of this test show for CC1CN(C2CCCCC2)c2nc3c(c(=O)[nH]c(=O)n3C)n2C1 (stereo not given) ?
inactive

What outcome does the record of this test show for CCCc1cc(C(=O)Nc2sc(C)c(C)c2C(=O)OCC)no1 ?
inactive

What outcome does the record of this test show for O=C(NCc1cccnc1)c1cccc(C(F)(F)F)c1 ?
inactive

What outcome does the record of this test show for Cc1ccc2cc(CN(CC3CCCO3)S(=O)(=O)c3ccc4c(c3)OCCO4)c(=O)[nH]c2c1C (stereo not given) ?
inactive

What outcome does the record of this test show for CC1CCN(C(=O)c2cc(-c3ccc(Cl)c(Cl)c3)on2)CC1 ?
inactive

What outcome does the record of this test show for COc1ccc(OC)c(NS(=O)(=O)Cc2ccccc2)c1 ?
inactive
